STUDY SYSTEM: human chorionic gonadotropin (hCG) heterodimer (Homo sapiens) (UniProt P01215+P0DN86)
Sequence (P01215 25-116, chain 1 of 2, other chains not shown): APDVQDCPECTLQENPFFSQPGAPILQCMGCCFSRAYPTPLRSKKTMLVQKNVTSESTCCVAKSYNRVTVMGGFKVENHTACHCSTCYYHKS
TEST DESCRIPTION: filter
CONDITION: 2'-F all pyrimidines (RNA transcript of template); estimate; <1% bound at up to 80 uM
VALUE TYPE: Kd

Request: Form field: Kd recorded for GGGAGACAAGAAUAAACGCUCAANNNNNNNNNNNNNNNNNNNNNNNNNNNNNNNNNNNNNNNNUUCGACAGGAGGCUCACAACAGGC [2'-F random 40N8 pool] with human chorionic gonadotropin (hCG) heterodimer (Homo sapiens) (UniProt P01215+P0DN86) (enter value)
Response: > 800 µM
